Numbers sourced from PubChem BioAssay (NCI).

# System: RXF 393 renal
# protocol: NCI tumour cell line growth inhibition, 48 h; in the data active means GI50 below about 0.43 µM; inactive means the rest
Output constraint: value belongs to yes = active, no = inactive

Here are 2 compounds together with their reported answers.
{"columns": ["compound", "target of assay", "class label"],
 "data": [
  ["COc1cc([C@@H]2c3cc4c(cc3[C@H](OC3OC5COC(c6ccccc6)OC5C(O)C3O)[C@H]3COC(=O)[C@H]23)OCO4)cc(OC)c1OC (stereo partly drawn)", "RXF 393 renal", "yes"],
  ["COc1ccc(CCNc2nc3ccccc3c3[nH]c4ccccc4c23)cc1OC", "RXF 393 renal", "no"]
]}

input: # outcome recorded in this test, key = CC[C@]1(O)C[C@@H]2CN(Cc3c([nH]c4ccccc34)[C@@](C(=O)OC)(c3cc4c(cc3OC)N(C)[C@H]3[C@@](O)(C(=O)OC)[C@H](OC(C)=O)[C@]5(CC)[C@@H]6C[C@@H]6CN6CC[C@]43[C@@H]65)C2)C1
output: yes

====

# Test system: SK-MEL-28 melanoma
# protocol: NCI tumour cell line growth inhibition, 48 h
Each item that follows carries a reported GI50.

{"columns": ["compound", "GI50"],
 "data": [
  ["CC[C@]1(O)C[C@@H]2CN(Cc3c([nH]c4ccccc34)[C@@](C(=O)OC)(c3cc4c(cc3OC)N(C)[C@H]3[C@@](O)(C(=O)OC)[C@H](OC(C)=O)[C@]5(CC)[C@@H]6C[C@@H]6CN6CC[C@]43[C@@H]65)C2)C1", "0.0822 µM"],
  ["COc1cc([C@@H]2c3cc4c(cc3[C@H](OC3OC5COC(c6ccccc6)OC5C(O)C3O)[C@H]3COC(=O)[C@H]23)OCO4)cc(OC)c1OC (stereo not given in full)", "0.71 µM"],
  ["CCc1nc(N)nc(N)c1-c1ccc(Cl)cc1", "> 100 µM"],
  ["C=C1C(=O)O[C@@H]2[C@@H]3O[C@@](C)(CC/C=C(\\C)CCC[C@@H]2C)[C@H](O)C[C@@H]13", "3.13 µM"],
  ["Cc1nc2c(cnn2-c2ccnc3c(C(F)(F)F)cccc23)c(=O)o1", "> 100 µM"]
]}

input: I would be grateful if you could share the reported GI50 for Cc1ccc(CCC(=O)Nc2ncc(Cc3cc(Cl)ccc3Cl)s2)o1 .
output: 1.54 µM

input: Consider next the compound COc1ccc(/C=C2/SC(=Nc3c(C)nn(-c4ccccc4)c3N)NC2=O)cc1 in the same way.
output: 11.6 µM

input: Param item: C=C1C(=O)OC(CCCCCCCC)C1C(=O)O (stereo not given)
output: 15 µM

====

This section presents compounds with their documented TGI values.
# System: HS 578T breast
# protocol: NCI tumour cell line growth inhibition, 48 h

These solved cases illustrate the format of a correct answer.
{"columns": ["compound", "obs value"],
 "data": [
  ["Cn1ccnc1CCc1ccc(F)cc1F", "> 100 µM"],
  ["COc1ccc(/C=N\\N2CC(=O)N3C4C=CC(CC4)N3C2=O)cc1 (stereo not given)", "> 100 µM"]
]}

input: May I ask what TGI has been recorded for CN(NC(=O)/C(=C/c1ccc(O)cc1)NC(=O)c1ccccc1)c1ccnc2cc(Cl)ccc12 ?
output: 48.2 µM

input: // next record CC(C)(O)Cn1c(=O)c(Oc2ccc(F)cc2F)cc2cnc(NC3CCOCC3)nc21
output: > 25 µM

input: Another compound to look at: Cn1cc(-c2ccc3cc(-c4ccc(CC(=O)Nc5cc(C(C)(C)C)nn5C)cc4)cnc3c2)cn1
output: > 100 µM
